B1: glmS ribozyme (parent)
chain: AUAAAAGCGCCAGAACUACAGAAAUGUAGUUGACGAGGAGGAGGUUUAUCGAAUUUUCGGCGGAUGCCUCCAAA

Variants of: B1
testSummary: self-cleavage kobs at 2500 uM GlcN6P; higher = faster cleavage; RNA array
conditionDetails: with glucosamine-6-phosphate
Fewer inactive variants are shown than the library holds.
For each record, write down the corresponding self-cleavage kobs at 2500 uM GlcN6P.
Field: numeric (s⁻¹). Do not append units.

Query: Reported self-cleavage kobs at 2500 uM GlcN6P, variant A12U C71U : ____
Reply: 0.0611

Query: Reported self-cleavage kobs at 2500 uM GlcN6P, variant G43A A53G : ____
Reply: 0.000132

Query: Reported self-cleavage kobs at 2500 uM GlcN6P, variant A12C G29U U47G : ____
Reply: 0.000697

Query: Reported self-cleavage kobs at 2500 uM GlcN6P, variant A15G U55A A64U : ____
Reply: 9.74e-05

Query: Reported self-cleavage kobs at 2500 uM GlcN6P, variant A39U A42G C67U : ____
Reply: 0.00297

Query: Reported self-cleavage kobs at 2500 uM GlcN6P, variant A42G U46G : ____
Reply: 0.0074

Query: Reported self-cleavage kobs at 2500 uM GlcN6P, variant G40A A53U : ____
Reply: 0.00268

Query: Reported self-cleavage kobs at 2500 uM GlcN6P, variant C16U U45G U54G : ____
Reply: 0.0032

Query: Reported self-cleavage kobs at 2500 uM GlcN6P, variant U46C C58A : ____
Reply: 7.47e-05

Query: Reported self-cleavage kobs at 2500 uM GlcN6P, variant U45A U47G : ____
Reply: 0.00915

Query: Reported self-cleavage kobs at 2500 uM GlcN6P, variant A6C C10U G37U C50G U54C C70A : ____
Reply: 0.000151
